# Test Target: T1, human GHR (as in Tables 1 and 2) (human, UniProt P10912 49-253, limits assumed)
# T1 sequence: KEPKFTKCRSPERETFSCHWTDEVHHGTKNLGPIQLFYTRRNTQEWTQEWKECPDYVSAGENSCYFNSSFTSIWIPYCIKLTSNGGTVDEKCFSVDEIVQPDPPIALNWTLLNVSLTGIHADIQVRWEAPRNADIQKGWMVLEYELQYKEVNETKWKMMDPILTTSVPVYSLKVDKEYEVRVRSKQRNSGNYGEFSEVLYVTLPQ
# Assay Details: Biacore, Fab, 37 C
Below: a set of entries, each annotated with reported pKd.
pKd here is simply -log10 of the concentration when that concentration is written in mol/L.

Some solved cases for reference:
Binder: SS1 Fab (Fab, V domains shown, Fab) VH: EVQLVESGGGLVKPGGSLRLSCAASGFTFSDAWMDWVRQAPGKGLEWVAEIRSKANYHATYYAESVKGRFTISRDDSKNTLYLQMNSLKTEDTAVYYCTLIRDYWGQGTLVTVSS VL: EIVLTQSPGTLSLSPGERATLSCTATSSVSSSYLNWYQQKPGQAPRLLIYSTSNLASGIPDRFSGSGSGTDFTLTISRLEPEDFAVYYCHQYHRSTPTFGGGTKVEIK
pKd: 8.80
//
Binder: SS3 Fab (Fab, V domains shown, Fab) VH: EVQLVESGGGLVKPGGSLRLSCAASGFTFSDAWMDWVRQAPGKGLEWVAEIRSKANNHATYYAESVKGRFTISRDDSKNTLYLQMNSLKTEDTAVYYCTLFRDYWGQGTLVTVSS VL: EIVLTQSPGTLSLSPGERATLSCTATSSVSSSYLNWYQQKPGQAPRLLIYSTSNLASGIPDRFSGSGSGTDFTLTISRLEPEDFAVYYCHQYHRFTPTFGGGTKVEIK
pKd: 8.70
//
Binder: SS4 Fab (Fab, V domains shown, Fab) VH: EVQLVESGGGLVKPGGSLRLSCAASGFTFSDAWMDWVRQAPGKGLEWVAEIRSKANNHATYYAESVKGRFTISRDDSKNTLYLQMNSLKTEDTAVYYCTLYRDYWGQGTLVTVSS VL: EIVLTQSPGTLSLSPGERATLSCTATSSVSSSYLHWYQQKPGQAPRLLIYSTSNLASGIPDRFSGSGSGTDFTLTISRLEPEDFAVYYCHQYHRSTPTFGGGTKVEIK
pKd: 6.91
//
Binder: TM1 Fab (Fab, V domains shown, Fab) VH: EVQLVESGGGLVKPGGSLRLSCAASGFTFSDAWMDWVRQAPGKGLEWVAEIRSKANYHATYYAESVKGRFTISRDDSKNTLYLQMNSLKTEDTAVYYCTLIRDYWGQGTLVTVSS VL: EIVLTQSPGTLSLSPGERATLSCTATSSVSSWYLHWYQQKPGQAPRLLIYSTSNLASGIPDRFSGSGSGTDFTLTISRLEPEDFAVYYCHQYHRSTPTFGGGTKVEIK
pKd: 8.47

Now examine the next entry.
Lookup: Given TM9 Fab (Fab, V domains shown, Fab) VH: EVQLVESGGGLVKPGGSLRLSCAASGFTFSDAWMDWVRQAPGKGLEWVAEIRSKANYHATYYAESVKGRFTISRDDSKNTLYLQMNSLKTEDTAVYYCTLIRDYWGQGTLVTVSS VL: EIVLTQSPGTLSLSPGERATLSCTATSSVSSSYLHWYQQKPGQAPRLLIYSTSNLASGIPDRFSGSGSGTDFTLTISRLEPEDFAVYYCHQYHRGTPTFGGGTKVEIK , respond with its pKd.
Found: 8.48
